Recorded values, source paper PMC7180842.

# experimental-details: Macrophage cytotoxicity screening (MTT assay)
# Type: cell-based
# assay-setup: human, THP1 cells differentiated to macrophages
Below, each entry is listed with its recorded CC50 at 48 h.
measurement-type: CC50 at 48 h (µg/mL)

INSERT INTO results (molecule, reported) VALUES
  ('O=C(O[C@@H]1Cc2c(O)cc(O)cc2O[C@@H]1c1cc(O)c(O)c(O)c1)c1cc(O)c(O)c(O)c1 [EGCG, (−)-Epigallocatechin gallate]', 88.9),
  ('O=C(O[C@@H]1Cc2c(O)cc(O)cc2O[C@H]1c1cc(O)c(O)c(O)c1)c1cc(O)c(O)c(O)c1 [GCG, (−)-gallocatechin gallate]', 94.9),
  ('Oc1cc(O)c2c(c1)O[C@H](c1cc(O)c(O)c(O)c1)[C@H](O)C2 [EGC, (−)-epigallocatechin]', 121),
  ('Oc1cc(O)c2c(c1)O[C@@H](c1cc(O)c(O)c(O)c1)[C@H](O)C2 [GC, (−)-gallocatechin]', 115);
